Assay procedure: PTH delivery in rats, oral (PO) and intracolonic (IC); serum PTH by radioimmunoassay
Type: in vivo, Sprague-Dawley rats
Test settings: PO, compound dose 100 mg/kg, PTH (1-34) dose 200 μg/kg
Quantity measured: Mean Peak Serum PTH (pg/mL)
Answers are plain numbers, in pg/mL.

Look over these answered cases.
INSERT INTO measurements (structure_smiles, quantity_measured, unit, reported_measurement) VALUES
  ('O=C(O)CCCNC(=O)c1ccccc1F', 'Mean Peak Serum PTH', 'pg/mL', 303),
  ('Cc1ccccc1C(=O)NCCCC(=O)O', 'Mean Peak Serum PTH', 'pg/mL', 5),
  ('COc1ccccc1C(=O)NCCCCCCCCCC(=O)O', 'Mean Peak Serum PTH', 'pg/mL', 17),
  ('COc1ccccc1C(=O)NCCCC(=O)O', 'Mean Peak Serum PTH', 'pg/mL', 14);

Next up:
Exercise: Fill blank: measured Mean Peak Serum PTH of the compound `O=C(O)CCCCCNC(=O)c1ccccc1F` is ____.
Solution: 0
